Value source: PubChem BioAssay (NCATS)

test-target: Cytochrome P450 2C9 (Homo sapiens)
protocol-details: Cytochrome P450 family 2 subfamily C member 9 (CYP2C9) small molecule antagonists: luciferase biochemical (cell-free) qHTS assay (AID 1645842); also: nearly all actives have a fitted effect of over 55% in size
condition-set: P450-Glo CYP2C9 enzyme assay, luciferin luminescence; series mostly up to 57.4 µM
From the text: National Center for Advancing Translational Sciences [NCATS] Assay Overview: Cytochrome P450 (CYP) enzymes are membrane-bound hemeproteins that play a key role in metabolism of drugs and xenobiotics. Assaying the effect of chemicals on CYP isozymes is useful to minimize the adverse drug reactions and toxicities in drug development process. […] The luciferin products formed are detected with a luciferin detection reagent, and the amount of light produced is proportional to CYP activity. […]
Results filed as inconclusive are left out. Calls of active or inactive are those of the source. Calls follow the shape of the dose curve; as a rule, active = well fitted inhibition curve with a large enough effect in the repeat runs; inconclusive = weak or mixed curves; inactive = no such curve, though single readings can be large or run the other way.
Outcomes: yes (active), no (inactive)

1) C[C@]12CCC(=O)C=C1CC[C@@H]1[C@@H]2[C@@H](O)C[C@@]2(C)[C@H]1CC[C@]2(O)C(=O)COC(=O)CCC(=O)O : no
2) CO[C@]1(NC(=O)CSC(F)F)C(=O)N2C(C(=O)O)=C(CSc3nnnn3CCO)CO[C@H]21 : no
3) O=c1[nH]c(=O)n([C@H]2O[C@H](CO)[C@@H](O)[C@@H]2O)cc1/C=C\Br : no
4) CC1(C)S[C@@H]2[C@H](NC(=O)C(c3ccccc3)S(=O)(=O)O)C(=O)N2[C@H]1C(=O)O (stereo partly drawn) : no
5) O=C(CCCCCCCCC#CI)Oc1ccccc1 : yes
6) CCC(C(=O)NC(=O)NC(C)=O)c1ccccc1 (stereo not drawn) : no
7) O=C(C1CCCCC1)N1CC(=O)N2CCCc3ccccc3C2C1 (stereo not drawn) : yes
8) NC(=O)C1(N2CCCCC2)CCN(CCCN2c3ccccc3CCc3ccc(Cl)cc32)CC1 : yes

###

Test system: MKL-2
protocol-details: qHTS assay to identify novel small-molecules to repurpose for Merkel cell carcinoma treatment (AID 1296009); also: nearly all actives have a fitted effect of over 60% in size
condition-set: MCC and control cell lines, CellTiter-Glo viability, 72 h; series mostly up to 46 µM
Inconclusive results are not listed. Calls of active or inactive are those of the source. The call rests on the fitted dose curve; in most records, active means well fitted inhibition curve with a large enough effect; inconclusive means small, poorly fitted or top-dose-only effect; inactive means flat fitted curve, though single readings scatter.
Possible outcomes: active, inactive

1. Fc1ccc(C(c2ccc(F)cc2)N2CCNCC2)cc1 : inactive
2. CCOC(=O)[C@H](CCc1ccccc1)N[C@@H](C)C(=O)N(CC(=O)O)C1Cc2ccccc2C1 : inactive
3. Cc1cc(O)c(C)c(C)c1O : inactive
4. C/C=C(/C(=C/C)c1ccc(OC(C)=O)cc1)c1ccc(OC(C)=O)cc1 : inactive
5. CCn1ccc(NS(=O)(=O)c2ccc(N)cc2)nc1=O : inactive
6. CCCCCCCCCCCCCCCC[n+]1ccccc1 : active
7. C#Cc1ccc(-c2ccccc2F)cc1 : inactive
8. CO/N=C(\C(=O)O)c1csc(NC(=O)CCl)n1 : inactive
9. CCC(=O)Oc1ccc2c(c1)CC[C@@H]1[C@@H]2CC[C@@]2(C)[C@H]1C[C@@H](OC(=O)CC)[C@@H]2OC(=O)CC : inactive
10. Nc1ncnc2c1ncn2Cc1c(F)cccc1Cl : inactive
11. CCCCC(CC)CNC(=O)CC(C)OC(=O)CCC(=O)O (centres undefined) : inactive
12. CC(=O)CC/C=C(\C)CC/C=C(\C)CC/C=C(\C)CCC=C(C)C : inactive
13. CN1CCC(Nc2ncc3ncnc(Nc4ccc(F)c(Cl)c4)c3n2)CC1 : active
14. COCCc1ccccn1 : inactive
15. CCCCC(=O)OCC(=O)[C@H]1[C@H](C)C[C@H]2[C@@H]3C[C@H](F)C4=CC(=O)C=C[C@]4(C)[C@@]3(F)[C@@H](O)C[C@@]21C : inactive
16. COc1ccccc1N1CCN(CC(O)COc2cc(OC)c(OC)c(OC)c2)CC1 (centres undefined) : inactive
17. COC(=O)c1cc(Cl)c(NC(C)=O)cc1OC : inactive
18. CC(=O)N(c1onc(C)c1C)S(=O)(=O)c1ccc(N)cc1 : inactive
19. O=C1CC2(CCCC2)CC(=O)N1 : inactive
20. CSc1ccc(/C=C2/C(C)=C(CC(=O)O)c3cc(F)ccc32)cc1 : inactive
21. CC(=O)Nc1ccn(C2COC(COC(=O)c3ccccc3)O2)c(=O)n1 (centres undefined) : inactive
22. CCCCN(CCCC)C(C(N)=O)c1ccc(OC)cc1 (centres undefined) : inactive
23. Cc1ncc([N+](=O)[O-])n1C : inactive
24. CCCCCOc1ccc(C2SC(=O)NC2=O)cc1OCC (centres undefined) : inactive
